Source of measurements: the EternaBench riboswitch data

System: MS2 coat protein
assay_overview: apparent Kd, MS2 coat protein; higher = weaker binding; RNA-MaP array; FMN 200 µM where present
recorded_conditions: designed as: ON switch for flavin mononucleotide; no ligand
Kindly supply the reported apparent Kd values for the records listed here.
One number for each entry, in nM.

Reported apparent Kd for GUAACAUGAGGAUCACCCAUGUCGUGCUAGAUGAGUUCUAGUGAGGAUAUACAUGGUAAAUAACUGUAGAAGGUGCUGGGUACA was 192

Notebook: CGCUACUACCAGAAGGACAUGAGGAUCACCCAUGUAGGAUAUGGGUUACACGUUCCUGUGUAUUGUUACUACGCUACGUAUGCG , apparent Kd read as 168

The recorded apparent Kd for entry AAGUUUGUACGAGGAUAUCAGUUGUUUCUAAAUUCAACAUGAGGAUCACCCAUGUAACAAUGGAGUGAGAAGGCGUGUGGGCAA equals 740

Here is the next item to consider.
The reported value for CCUAAGGACACAGGAUAUAGCGUGGUGGCUGGGCUCCAACGACAAGCGGCGCUAGAAGGGUGACCACAUGAGGAUCACCCAUGU in terms of apparent Kd is 754

----------
For each record, write down the corresponding apparent Kd.
Test system: MS2 coat protein
assay_overview: apparent Kd, MS2 coat protein; higher = weaker binding; RNA-MaP array
recorded_conditions: ligand present: flavin mononucleotide; designed as: ON switch for flavin mononucleotide
Numbers only, in nM.

Example entries and their recorded answers appear below.
Record UGAUGUAACAGAGGAUAUCACUCAAAUGCGGGCAUGUCGCACAUGUACAUGAGGAUCACCCAUGUUGAGAAGGCUGUGGUGCAA , field apparent Kd: 47.5

Kindly note the recorded apparent Kd for GUAAACGCCACAGGAUAUUGGCAGAAUAAGGAGCAAGAAGGGUGGGAUAGAAUCACGUGAACAUGAGGAUCACCCAUGUGUGGA , which is 38

Turning to the following sequence.
Sample ACGAGAGCCCAGAAGGACACGGGAUACUCACAAGCAUUCUGGACAUGAGGAUCACCCAUGUGUAUGUAGGAUAUGGGAGUUGCG ; apparent Kd observed: 15.2

----------
Please go through the items and note down their apparent Kd.
System: MS2 coat protein
assay_overview: apparent Kd, MS2 coat protein; higher = weaker binding; RNA-MaP array; theophylline 2 mM where present
recorded_conditions: designed as: ON switch for theophylline; no ligand
Answers are plain numbers, in µM.

Examples with their reported apparent Kd follow.
// AUCGUACCUGAUGAUACCAGCAAGUGAUCAUAACAUGAGGAUCACCCAUGUAAUCAGUGAUGCCCUUGGCAGCAUAGUCGAUACA : apparent Kd value = 0.164

apparent Kd recorded for this sequence, ACAUGAGGAUCACCCAUGUCAAGGCACGAUACCAGCUGAUCCGGUGGCCCUUGGCAGCGUCACGUUUGGUCCCGCGGAUGACACG , is 0.0647

Consider UAACAUGAGGAUCACCCAUGUAUAGUCGAUACCAGCUCAAGGGAGAGCCCUUGGCAGCGACACUGGUAUCCAUGGGUGUGGAUAC . Its measured apparent Kd is 0.0823

Provide the reported apparent Kd of each entry below, same order.
1. UGUAACAUGAGGAUCACCCAUGUGAGUGAUACCAGAUUAGUAUUAGUCCCUUGGCAGCACAUUGGGCGAGUGUAUAGUCUAUGCG
2. AAUAACAUGAGGAUCACCCAUGUAAAAGAUACCAGAGUGAUGAUCCUCCCUUGGCAGCUUAAUAACGCUAUUGAUUACAAUAGCG
3. UCGUGUAUAUCGGAUACCAGUGAAAACGAUACAUGAGGAUCACCCAUGUGAGUUGAUGUACACCCUUGGCAGCUGUAUAUAUCUA
4. AAUAACAUGAGGAUCACCCAUGUAAAAGAUACCAGAUGCAUGAUGAUCCCUUGGCAGCUUAAAACGCGAUUGAUUACAAUCGCGA

(A)
1. 0.154
2. 0.0464
3. 0.0193
4. 0.0333

----------
Tested on: MS2 coat protein
assay_overview: apparent Kd, MS2 coat protein; higher = weaker binding; RNA-MaP array; FMN 200 µM where present
recorded_conditions: designed as: OFF switch for flavin mononucleotide; no ligand
endpoint_label: apparent Kd (nM)
Answers are plain numbers, in nM.

Sample answers from the record:
// sample UAAUAAAACGAUCGGCGAUCCAUACAUGAGGAUCACCCAUGUAGAAGGCACUCUACAAAGUAGAGUGAGGAUAUACGAGAUCGA , its apparent Kd was 7.85

Input AUAGAAAGAUUAAUAUGAUUACAUGAGGAUCACCCAUGUAUAUAGGAUAUCGACGUCAAUGACGUCGAGAAGGAUAUACAUAAU . Output apparent Kd: 27.6

The measured apparent Kd associated with UAUAUAUAGUAAGGAUAUGUAUUUAUUUUAGAAACAGAAGGUACUGACAUGAGGAUCACCCAUGUUUUAGUGUGGGCAUGUAGA reads 96.3

Form field apparent Kd, entry UUUACAUACAUGAGGAUCACCCAUGUGUUCACCCAUGUAAAUCAGGAUAUAUAUAUAUAGAAUGUAUAGAAGGGAUAAUUUUUU : 97.5

apparent Kd for GACAUUGGCAAGAAGGCAAACAUGAGGAUCACCCAUGUUCUGUAUGUAUAUUGAGGAUAUUGCCAAUGUAUGUGGAUCACCCAA is 9.44

# return apparent Kd for each item in the list
1. GUCCUACAUGAGGAUCACCCAUGUGAGGAUAUGGUUUCGCUGGCCGUAGCCAGUGGAACCAGAAGGCGCGUGAU
2. GUGUACAGAGGAUAUACAGGAGCUAGGAAACUAGCAACUUCACAUGAGGAUCACCCAUGUAGAAGGCUGUACAC
3. GCCAGGAUGUGAGGAUAUGCUGAGGAUACUUCAGCAGAAGGCACAUGAGGAUCACCCAUGUACACUUAUCAUAAAUACCCUGGC

(A)
65.3
15.3
13.4

List reported apparent Kd for each of these sequences:
1. GGUACUCAAAGAGUACCAAUACGAACAUGAGGAUCACCCAUGUAGGAUAUGAAAACGCCGGAGUAUCAGAAGGACAUGUGCCUA
2. CUUCAGUCAGGAUAUGUUAAUCUCGCCACUCCACGAGCCGGACAGAAGGGACAUGAGGAUCACCCAUGUUAGAC
3. GAUCCUUAAGUCAGGAUAUCAAGCAAACUCUAAAUUGAGAAGGGACAUGAGGAUCACCCAUGUCACCGAAAUAA
4. AAAAAACAUGAGGAUCACCCAUGUGAGGAUAUGACUUAAAUAAAGAAAGAAGAAAUAGUCAGAAGGCACAAAUA
5. AAAUUGUCAGGAUAUCCUGCUAUACGCAAUAUGUAUUCACGGGAGAAGGGACAUGAGGAUCACCCAUGUUUGAA
6. GUCAGACGAGGAUAUAGAUUUAAGUACAUGAGGAUCACCCAUGUACAUAUGUAUUUAGAUUUAGAAGGCGUCUGAC
7. CUAUAUAAUACCUCAUGUACAUGAGGAUCACCCAUGUUAACUUAGGAUAUAUUUAUAUUAAUAGAGUAGAAGGAAGUACUAUUG

(A)
12.6
30
14.7
54.5
21.5
28.2
27.4

----------
Tested on: MS2 coat protein
assay_overview: apparent Kd, MS2 coat protein; higher = weaker binding; RNA-MaP array; FMN 200 µM where present
recorded_conditions: designed as: OFF switch for flavin mononucleotide; no ligand
# cutoff 60 nM applies to apparent Kd; >= gives yes, < gives no

(Q) Determine whether measured apparent Kd meets or exceeds 60 nM for UCGUGUUAUACAGGAUAUGUUUAGGUAUAAUCAUUCAGUUAUUAAUUAAUGACAGAAGGGUAAACAUGAGGAUCACCCAUGUCA
(A) yes

(Q) Kindly determine if apparent Kd recorded for GAGAUGUGAGGAUAUCUAGACCGCGGCAGAGCUGCGGUCCGAGAGAAGGCACAUGAGGAUCACCCAUGUGAUGA is above or exactly 60 nM.
(A) no

Continuing:
(Q) Exam item: decide whether the reported apparent Kd for UCGGCGCGAGGAUAUGCGGCUGCUGCUUCGGGCCGUGGCGUACAUGAGGAUCACCCAUGUAGAAGGCGCGCCGC is at least 60 nM.
(A) no

(Q) Given CCCUCAACAUGAGGAUCACCCAUGUAGGAUAUCGCUAUUGUAAUCAUGAAACAUGAUUACAAUAGCGAGAAGGACAUAUGUAAA , state whether its apparent Kd is at least 60 nM.
(A) no

(Q) In plain terms: is recorded apparent Kd at least 60 nM for CCGGAAUUACAGGAUAUAGGAGUCGAUAGACACCUAGAAGGGUAGACAUGAGGAUCACCCAUGUGUCCUACCGG ?
(A) yes

(Q) I'd appreciate it if you could say whether UAUAUUUAUGUAGGAUAUGGUAUACAAAGUAUACCAGAAGGACAUGAGGAUCACCCAUGUAUGAAAUUCCAUAAUUGCCGUGUA has apparent Kd at least equal to 60 nM.
(A) no

(Q) Evaluate CAUUAAUUGAUUAUUGUAUUUAUACAGGAUAUGUAACAUGAGGAUCACCCAUGUAUACAUGGGAAACAGAAGGGUAUUUAUAGA : apparent Kd at minimum 60 nM?
(A) no
